# System: Pseudomonas aeruginosa
# measurement.notes: In vitro minimum inhibitory concentration (MIC) against Pseudomonas aeruginosa A 9843 at 37 degrees C for 18 h
# Assay type: functional
reported.metric: MIC (µg/mL)
Just the number please, in µg/mL, no unit attached.

// lookup MIC for CC(C)(C)n1cc(C(=O)O)c(=O)c2cc(F)c(N3CCNCC3)cc21
0.5

Param item: CC1CN(c2cc3c(cc2F)c(=O)c(C(=O)O)cn3C(C)(C)C)CC(C)N1 (configuration not stated)
4

Param item: CC1CN(c2nc3c(cc2F)c(=O)c(C(=O)O)cn3C(C)(C)C)CCN1 (configuration not stated)
8

Param item: CN1CCN(c2cc3c(cc2F)c(=O)c(C(=O)O)cn3C(C)(C)C)CC1.Cl
0.5

Param item: CN1CCN(c2nc3c(cc2F)c(=O)c(C(=O)O)cn3C(C)(C)C)CC1
1

Param item: CC(C)(C)n1cc(C(=O)O)c(=O)c2cc(F)c(N3CCNCC3)nc21
1

Param item: CC1CN(c2cc3c(cc2F)c(=O)c(C(=O)O)cn3C(C)(C)C)CCN1 (configuration not stated)
1

====

# Tested on: Enterococcus faecium
# measurement.notes: In vitro minimum inhibitory concentration (MIC) against Enterococcus faecium A 24885 at 37 degrees C for 18 h.
# Format: functional
reported.metric: MIC (µg/mL)
Just the number please, in µg/mL, no unit attached.

// lookup MIC for CC(C)(C)n1cc(C(=O)O)c(=O)c2cc(F)c(N3CCC(N)C3)cc21.Cl (stereo not given)
2

Param item: CCNCC1CCN(c2cc3c(cc2F)c(=O)c(C(=O)O)cn3C(C)(C)C)C1 (stereo not given)
4

Param item: CC1CN(c2cc3c(cc2F)c(=O)c(C(=O)O)cn3C(C)(C)C)CCN1 (stereo not given)
4

Param item: CC(C)(C)n1cc(C(=O)O)c(=O)c2cc(F)c(N3CCC(N)C3)nc21.CS(=O)(=O)O (stereo not given)
1

Param item: CS(=O)(=O)O.C[C@H]1CN(c2nc3c(cc2F)c(=O)c(C(=O)O)cn3C(C)(C)C)C[C@H]1N
1

====

# Test system: Enterococcus faecalis
# measurement.notes: In vitro minimum inhibitory concentration (MIC) against Enterococcus faecalis A 9808 at 37 degrees C for 18 h.
# Type: functional
reported.metric: MIC (µg/mL)
Just the number please, in µg/mL, no unit attached.

// lookup MIC for CC(C)(C)n1cc(C(=O)O)c(=O)c2cc(F)c(N3C[C@@H](N)[C@@H](F)C3)nc21.CS(=O)(=O)O
0.5

Param item: CC(C)(C)n1cc(C(=O)O)c(=O)c2cc(F)c(N3C[C@@H](N)[C@H](F)C3)nc21.CS(=O)(=O)O
0.25

Param item: CC(C)(C)n1cc(C(=O)O)c(=O)c2cc(F)c(N3C4CCC3CNC4)nc21.CS(=O)(=O)O
0.5

Param item: CN1CCN(c2nc3c(cc2F)c(=O)c(C(=O)O)cn3C(C)(C)C)CC1
2

Param item: CC[C@H]1CN(c2nc3c(cc2F)c(=O)c(C(=O)O)cn3C(C)(C)C)C[C@H]1N.Cl
0.25

Param item: CC1(N)CCN(c2cc3c(cc2F)c(=O)c(C(=O)O)cn3C(C)(C)C)C1 (centres undefined)
0.5

Param item: CC1CN(c2nc3c(cc2F)c(=O)c(C(=O)O)cn3C(C)(C)C)CCN1C (centres undefined)
1

Param item: CCNCC1CCN(c2cc3c(cc2F)c(=O)c(C(=O)O)cn3C(C)(C)C)C1 (centres undefined)
0.5

Param item: CC(C)(C)n1cc(C(=O)O)c(=O)c2cc(F)c(N3CC4CCC(C3)N4)nc21.CS(=O)(=O)O
1

Param item: CN(C)C1CCN(c2nc3c(cc2F)c(=O)c(C(=O)O)cn3C(C)(C)C)C1 (centres undefined)
0.5

Param item: CC(C)(C)n1cc(C(=O)O)c(=O)c2cc(F)c(N3CC4CCC3CN4)cc21 (centres undefined)
1

Param item: CC(C)(C)n1cc(C(=O)O)c(=O)c2cc(F)c(N3C[C@@H](CN)[C@@H](F)C3)nc21
0.13

Param item: CC(C)(C)n1cc(C(=O)O)c(=O)c2cc(F)c(N3CCNC(CF)C3)cc21 (centres undefined)
2

Param item: CC(C)(C)n1cc(C(=O)O)c(=O)c2cc(F)c(N3CC4CCC3CN4)nc21 (centres undefined)
0.5

Param item: CC(C)(C)n1cc(C(=O)O)c(=O)c2cc(F)c(N3CCC(CN)C3)cc21 (centres undefined)
0.25

Param item: CS(=O)(=O)O.C[C@H]1CN(c2nc3c(cc2F)c(=O)c(C(=O)O)cn3C(C)(C)C)C[C@@H]1N
0.06

Param item: CC(C)(C)n1cc(C(=O)O)c(=O)c2cc(F)c(N3C[C@@H]4C[C@H]3CN4)nc21
1

Param item: CC(C)(C)n1cc(C(=O)O)c(=O)c2cc(F)c(N3CCC(N)C3)cc21.Cl (centres undefined)
0.25

Param item: CC(C)(C)n1cc(C(=O)O)c(=O)c2cc(F)c(N3CCNCC3)nc21
0.5

// data source = ChEMBL document CHEMBL1124759
